Entries and their measured koff follow.
# Target or system: T1, human IL-17A (human, UniProt Q16552 24-155)
# T1 construct: Recombinant; biotinylated in the ELISA; also called hIL-17; hIL17A
# T1 sequence (Q16552 24-155): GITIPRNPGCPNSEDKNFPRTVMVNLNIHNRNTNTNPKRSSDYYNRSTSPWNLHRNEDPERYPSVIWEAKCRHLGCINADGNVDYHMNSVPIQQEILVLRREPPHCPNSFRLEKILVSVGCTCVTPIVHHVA
# Assay text: SPR (Biacore 3000), antibody captured by anti-Fc, antigen in solution;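 also: purified recombinant IL-17 antigens flowed over captured antibodies in HBS-EP buffer, global Langmuir one-to-one fit of association and dissociation phases, KD derived from koff over kon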
Field: numeric (s⁻¹). Do not append units.

Below, 2 binders whose answers are already recorded.
Binder	koff (s⁻¹)
IL17-h5C5.15 (antibody, V domains shown, IgG; constant regions not specified; also called h5C5.15 (VH.1b-Vk.3a)) VH: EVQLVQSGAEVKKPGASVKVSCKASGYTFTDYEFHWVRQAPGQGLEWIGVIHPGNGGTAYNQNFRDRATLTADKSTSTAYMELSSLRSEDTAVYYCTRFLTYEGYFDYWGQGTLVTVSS VL: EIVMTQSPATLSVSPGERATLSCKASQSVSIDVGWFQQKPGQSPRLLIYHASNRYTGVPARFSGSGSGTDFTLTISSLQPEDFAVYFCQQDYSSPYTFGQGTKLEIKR	0.000437
IL17-h5C5.9 (antibody, V domains shown, IgG; constant regions not specified; also called h5C5.9 (VH.1b-Vk.1a)) VH: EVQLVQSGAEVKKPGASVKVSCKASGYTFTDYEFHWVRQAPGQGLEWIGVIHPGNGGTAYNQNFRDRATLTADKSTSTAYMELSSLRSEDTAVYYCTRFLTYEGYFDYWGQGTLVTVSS VL: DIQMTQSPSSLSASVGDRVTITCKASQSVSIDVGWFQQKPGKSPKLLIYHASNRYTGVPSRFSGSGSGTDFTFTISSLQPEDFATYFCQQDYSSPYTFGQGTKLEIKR	0.000449

Turning to the following binder.
Measured koff, IL17-h5C5.18 (antibody, V domains shown, IgG; constant regions not specified; also called h5C5.18 (VH.1b-Vk.1c)) VH: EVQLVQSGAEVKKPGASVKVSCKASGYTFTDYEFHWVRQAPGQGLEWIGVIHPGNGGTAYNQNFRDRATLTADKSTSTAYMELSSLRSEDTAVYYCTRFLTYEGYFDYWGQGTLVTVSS VL: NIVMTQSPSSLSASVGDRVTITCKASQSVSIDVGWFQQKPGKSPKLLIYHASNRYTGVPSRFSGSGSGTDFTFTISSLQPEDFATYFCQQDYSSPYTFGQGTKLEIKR : 0.000493
